- measurement.protocol: Determination of the log P values by HPLC (formic acid method)
- Assay type: physicochemical
- conditions: reversed-phase column (C 18), acidic range (pH 3.4), 55° C.
Classification scheme (log P): low (below 2), mid (2 to below 3), high (3 or more)

Worked cases, answers included:
[[record]]
chemical_smiles = "Cc1ccsc1C(=O)Nc1ccn(-c2cc(F)ccc2F)n1"
discrete_label = "high"

[[record]]
chemical_smiles = "O=C(Nc1ccn(-c2ncc(C(F)(F)F)cc2Cl)n1)c1ccccc1C(F)(F)F"
discrete_label = "high"

[[record]]
chemical_smiles = "O=C(Nc1ccn(-c2ncc(F)cc2F)n1)c1ncccc1Cl"
discrete_label = "mid"


Field: next compound
Place this compound in its band: O=C(Nc1cnn(-c2ccccc2Br)n1)c1cccnc1Cl mid

# credit: patent US9802899B2
